- test-protocol: A quantitative high throughput screen for small molecules that induce DNA re-replication in MCF 10a normal breast cells. Also: nearly all actives have a fitted effect of over 50% in size.
- reported-conditions: MCF 10A DNA re-replication, Hoechst nuclear intensity, 48 h; series mostly up to 46.1 µM
- Description: H Molecular Libraries Probe Production Network [MLPCN] NIH Chemical Genomics Center [NCGC] Assay Provider: Melvin DePamphilis, NICHD, NIH Eukaryotic cells normally restrict genome duplication to once per cell division. […] To identify compounds that induce re-replication in normal cells, an image-based assay was used to measure DNA content of nuclei, as detected by the fluorescent DNA binding dye, Hoechst. […]
Among all 350,000 compounds or so, about 9,900 (2.8%) were called active. About 15% were inconclusive and are not listed. Calls follow the shape of the dose curve; as a rule, active = well fitted activation curve with a large enough effect; inconclusive = small, poorly fitted or top-dose-only effect; inactive = no such curve, though single readings can be large or run the other way. The sample holds actives, similar compounds and a random draw of the others, so the mix is not that of the screen.
Write down the outcome that applies. Available outcomes: yes (1) for active, no (0) for inactive

Solved cases (8 shown):
INSERT INTO assay_data (compound, cat) VALUES
  ('Cc1ccc(C(=O)NCCN2CCOCC2)cc1C', 'no (0)'),
  ('Nc1cc(N)nc(SCC(=O)Nc2cccc(S(=O)(=O)N3CCCCC3)c2)n1', 'no (0)'),
  ('CC(C)Cn1cnc2c(SCc3ccc(Cl)cc3)nc(N)nc21', 'no (0)'),
  ('COc1cc(/C=N/NC(=O)Cc2ccccc2)cc(OC)c1OC', 'no (0)'),
  ('Cc1ccc(S(=O)(=O)n2oc(=O)c(C3CCCCC3)c2N)cc1', 'no (0)'),
  ('CSc1ncccc1C(=O)NC1CCCCCC1', 'no (0)'),
  ('O=C(CCl)NNc1nc(-c2ccccc2)c2cc(Cl)ccc2n1', 'no (0)'),
  ('CN(C(=O)c1cccc(NC(=O)Cc2ccc(NC(=O)C3CCCN(C(=O)C4CCCC4)C3)cc2)c1)C1CCC1 (stereo not drawn)', 'no (0)');

Turning to the following compound.
## Input # fetch the recorded call for N#Cc1c(-c2ccccc2)nc(SCc2ccc([N+](=O)[O-])cc2)[nH]c1=O here
## Output no (0)

###

- test-protocol: A quantitative high throughput screen for small molecules that induce DNA re-replication in MCF 10a normal breast cells. Also: nearly all actives have a fitted effect of over 50% in size.
- reported-conditions: MCF 10A DNA re-replication, Hoechst nuclear intensity, 48 h; series mostly up to 46.1 µM
Among all 350,000 compounds or so, about 9,900 (2.8%) were called active. Another 15% or so got no clear call; they are omitted. Calls follow the shape of the dose curve; as a rule, active = well fitted activation curve with a large enough effect; inconclusive = small, poorly fitted or top-dose-only effect; inactive = no such curve, though single readings can be large or run the other way. The sample as a whole holds a higher share of actives than the screen did.
Write down the outcome that applies. Available outcomes: True = active, False = inactive

Solved cases (6 shown):
INSERT INTO measurements (compound, cat) VALUES
  ('COc1cc(N)c(Cl)cc1C(=O)OCC(=O)c1ccc2c(c1)NC(=O)CO2', 'False'),
  ('CSc1nnc(NC(=O)c2nc(S(=O)(=O)Cc3ccc(C)cc3)ncc2Cl)s1', 'True'),
  ('CSCCC(NC(=O)COc1ccccc1)C(=O)N(C)CC(=O)Nc1ccc(C)cc1 (stereo unspecified)', 'False'),
  ('CCS(=O)(=O)Nc1cccc(-c2cc(-c3ccccc3)c3cc(C)ccc3n2)c1', 'True'),
  ('CCSc1nnc(NC(=O)c2ccc(C)cc2)s1', 'False'),
  ('COCCNC(=O)c1ccc2nc(Cc3ccc(OC)c(OC)c3)oc2c1', 'True');

## Input # fetch the recorded call for Cc1ccc2nc(Nc3ccccc3)cc(C)c2c1 here
## Output False

## Input Query CCOC(=O)[C@H]1[C@H]2COc3ccc(Br)cc3[C@@H]2N2C(=O)CN(C)C(=O)[C@@]12C next
## Output False

###

- test-protocol: A quantitative high throughput screen for small molecules that induce DNA re-replication in MCF 10a normal breast cells. Also: nearly all actives have a fitted effect of over 50% in size. Also: potency is read from the fitted curve at half-maximal effect.
- reported-conditions: MCF 10A DNA re-replication, Hoechst nuclear intensity, 48 h; series mostly up to 46.1 µM
The campaign covered roughly 350,000 compounds. About 9,900 (2.8%) were called active. Another 15% or so got no clear call; they are omitted. This is one part of a sample in which actives are shown more often than they occur.
observable: Potency

INSERT INTO measurements (structure_notation, observable, reading) VALUES
  ('COc1ccc(/C=C/C(=O)Nc2c(C)nn(C)c2C)cc1COc1ccc(Br)cc1', 'Potency', '4.61 µM (active)'),
  ('C[C@@H]1CN([C@@H](C)CO)C(=O)c2cccc(NS(=O)(=O)c3ccc(F)cc3)c2O[C@H]1CN(C)C(=O)NC1CCCCC1', 'Potency', 'inactive'),
  ('Cc1ccc(S(=O)(=O)N2CCCCC2)cc1NC(=O)CCNC(=O)c1ccccc1', 'Potency', 'inactive'),
  ('Cc1ccc(C(=O)O)c(NC=O)c1OCc1ccccc1', 'Potency', 'inactive');

## Input Dear colleague, I am looking for the recorded Potency of the following compound: O=C1C=C(c2cc(C(F)(F)F)cc(C(F)(F)F)c2)C[C@@H](c2ccc3c(c2)OCO3)C1
## Output inactive

## Input Query O=C(CSc1ccccc1)Nc1cccc(S(=O)(=O)N2CCCCC2)c1 next
## Output inactive

###

- test-protocol: A quantitative high throughput screen for small molecules that induce DNA re-replication in MCF 10a normal breast cells. Also: nearly all actives have a fitted effect of over 50% in size.
- reported-conditions: MCF 10A DNA re-replication, Hoechst nuclear intensity, 48 h; series mostly up to 46.1 µM
Among all 350,000 compounds or so, about 9,900 (2.8%) were called active. Inconclusive results (about 15%) are left out. The call rests on the fitted dose curve; in most records, active means well fitted activation curve with a large enough effect; inconclusive means small, poorly fitted or top-dose-only effect; inactive means no such curve, though single readings can be large or run the other way. The sample as a whole holds a higher share of actives than the screen did.
Write down the outcome that applies. Available outcomes: 1.0 (active), 0.0 (inactive)

Solved cases (8 shown):
INSERT INTO assay_data (compound, cat) VALUES
  ('O=C(NCCC1CCCCN1S(=O)(=O)c1ccc(F)cc1)C(=O)NC1CC1 (stereo not given)', 0.0),
  ('O=C(Nc1nnc(CCc2ccccc2)s1)C1CCCO1 (stereo not given)', 0.0),
  ('COCCCNC(=O)CC1C[C@H](C(=O)N2CCCCC2)[C@@]2(CCc3ccccc3)c3[nH]c4ccccc4c3CCN2C1=O (stereo not given in full)', 0.0),
  ('O=C(Nc1nnc(SCc2ccc(Cl)cc2Cl)s1)C1COc2ccccc2O1 (stereo not given)', 1.0),
  ('O=C(Nc1nnc(SCc2c(Cl)cccc2Cl)s1)C1CCCO1 (stereo not given)', 1.0),
  ('O=C(Nc1nnc(SCc2c(Cl)cccc2Cl)s1)c1cccc([N+](=O)[O-])c1', 0.0),
  ('COc1cccc(CNC(=O)CN2C(=O)NC(Cc3ccccc3)(c3ccccc3)C2=O)c1 (stereo not given)', 0.0),
  ('CCOCCn1[nH]c2ccccc2c1=O', 0.0);

## Input # fetch the recorded call for O=C(Nc1nc(-c2ccncc2)cs1)C1COc2ccccc2O1 (stereo not given) here
## Output 0.0

## Input Query O=C(NCc1ccccc1CN1CCCC1)c1cccc(S(=O)(=O)Nc2ccc(F)cc2)c1 next
## Output 0.0

###

- test-protocol: A quantitative high throughput screen for small molecules that induce DNA re-replication in MCF 10a normal breast cells. Also: nearly all actives have a fitted effect of over 50% in size.
- reported-conditions: MCF 10A DNA re-replication, Hoechst nuclear intensity, 48 h; series mostly up to 46.1 µM
- Text: H Molecular Libraries Probe Production Network [MLPCN] NIH Chemical Genomics Center [NCGC] Assay Provider: Melvin DePamphilis, NICHD, NIH Eukaryotic cells normally restrict genome duplication to once per cell division. […] To identify compounds that induce re-replication in normal cells, an image-based assay was used to measure DNA content of nuclei, as detected by the fluorescent DNA binding dye, Hoechst. […]
Screen size: about 350,000 compounds; about 9,900 (2.8%) were called active. Roughly 15% stayed inconclusive and do not appear here. Calls follow the shape of the dose curve; as a rule, active = well fitted activation curve with a large enough effect; inconclusive = small, poorly fitted or top-dose-only effect; inactive = no such curve, though single readings can be large or run the other way. Only a selection was taken, and actives are over-represented in it overall.
Write down the outcome that applies. Available outcomes: TRUE = active, FALSE = inactive

INSERT INTO results (compound, cat) VALUES
  ('COCCN(Cc1ccccc1)C(=O)Cc1ccc(S(=O)(=O)N2CCOCC2)s1', 'FALSE');

## Input # fetch the recorded call for COc1ccc(-c2cc(C(=O)NCCCN3CCCC3=O)c3ccccc3n2)cc1OC here
## Output FALSE

## Input Query O=C(NCc1ccccc1)C1=C[C@H](C2CC2)C[C@H](OCc2ccc(CO)cc2)O1 next
## Output FALSE

## Input Query O=S1(=O)CSCS(=O)(=O)C1 next
## Output FALSE

## Input Query Cc1cccc(NC(=O)CN2C(=O)c3ccccc3C2=O)c1C next
## Output FALSE

## Input Query COc1ccc2oc(N)nc2c1 next
## Output FALSE

###

- test-protocol: A quantitative high throughput screen for small molecules that induce DNA re-replication in MCF 10a normal breast cells. Also: nearly all actives have a fitted effect of over 50% in size.
- reported-conditions: MCF 10A DNA re-replication, Hoechst nuclear intensity, 48 h; series mostly up to 46.1 µM
Among all 350,000 compounds or so, about 9,900 (2.8%) were called active. Another 15% or so got no clear call; they are omitted. Calls follow the shape of the dose curve; as a rule, active = well fitted activation curve with a large enough effect; inconclusive = small, poorly fitted or top-dose-only effect; inactive = no such curve, though single readings can be large or run the other way. This excerpt belongs to a sample that is enriched for actives.
Write down the outcome that applies. Available outcomes: true = active, false = inactive

Solved cases (5 shown):
INSERT INTO assay_data (compound, cat) VALUES
  ('COc1cccc2c1C(=O)c1c(O)c3c(c(O)c1C2=O)CC(O)(C(C)=NNC(=O)c1ccc(Cl)c(Cl)c1)CC3OC1CC(N)C(O)C(C)O1 (stereo unspecified)', 'false'),
  ('O=C(COC(=O)Cc1ccc([N+](=O)[O-])cc1)NC1CCCCCC1', 'false'),
  ('Cc1ccc(NC(=O)CCC(=O)N2CCC(c3ccccc3)=N2)cc1S(=O)(=O)N1CCCCC1', 'true'),
  ('O=C(C1CC(=O)N(C2CCCC2)C1)N1CCN(c2cccc(C(F)(F)F)c2)CC1 (stereo unspecified)', 'false'),
  ('CC(C)CC(=O)Nc1ccc(Cc2ccncc2)cc1', 'false');

## Input # fetch the recorded call for Cc1c(/C=N\NC(=O)c2cc3ccccc3o2)c2ccccc2n1C here
## Output true

## Input Query CCOc1ccc(S(=O)(=O)N2CCN(C(=O)c3oc4ccccc4c3C)CC2)cc1 next
## Output false

## Input Query COc1ccc(N2CCN(C(CNS(=O)(=O)c3ccc(C)cc3)c3ccccc3)CC2)cc1 (stereo unspecified) next
## Output false

## Input Query O=C(N/N=C/c1coc2ccccc2c1=O)c1cc2ccccc2o1 next
## Output false

## Input Query Cc1c(/C=N/N2C(=O)C3C4C=CC(C4)C3C2=O)c2ccccc2n1C (stereo unspecified) next
## Output false

## Input Query CCc1ccccc1OCC(=O)Nc1ccc(C)c(S(=O)(=O)N2CCCCCC2)c1 next
## Output false

## Input Query Cc1cn(C2CC(O)C(CO)O2)c(=O)n(CCCc2ccccc2)c1=O (stereo unspecified) next
## Output false

## Input Query Cc1ccc(NC(=O)CCCNC(=O)c2ccc(Cl)cc2)cc1S(=O)(=O)N1CCCCC1 next
## Output false

## Input Query COc1ccc([C@H]2CC(=O)C=C(c3ccc(CO)cc3)C2)cc1 next
## Output false

## Input Query COc1ccc(Cl)cc1C=CC=NNC(=O)c1ccncc1 next
## Output false

## Input Query CC1CC(=NNC(=O)C2COc3ccccc3O2)CC(C)(C)C1 (stereo unspecified) next
## Output false

## Input Query COc1ccc(C(CNC(=O)c2cc(S(=O)(=O)Nc3cccc(C)c3)ccc2C)N2CCCC2)cc1 (stereo unspecified) next
## Output false

## Input Query CN1CCN(S(=O)(=O)c2ccc(N3CCN(c4ccccc4O)CC3)c([N+](=O)[O-])c2)CC1 next
## Output false

## Input Query CC(CC(=O)Nc1ccccc1)n1ccnc1 (stereo unspecified) next
## Output true

## Input Query O=C(O)CCCC(=O)Nc1ccccc1-n1ccnc1 next
## Output false

## Input Query CC(=O)Nc1ccc(S(=O)(=O)Nc2ccc(N3CCCCC3)cc2)cc1 next
## Output false

Source: PubChem BioAssay AID624296
